Target: 3% milk powder (negative control)
Test: phage ELISA, 3% milk powder coated (negative control), anti-M13(HRP)
Reported OD450 values for the following binders.
Form entry: value (OD450) — number only.

The following binders have reported results that may help.
V33 (VHH, Purified with C-terminal GGGGS-6×His) VHH: QLQLVESGGGSVQPGGSLRLSCEVSGRTFSSYTMGWFRQAPGKEREFVVAISKGGYKYDSVSLEARFTISKDNTKNTVYLQMNSLKPEDTAVYYCAATRAYGSSRLRLAKTYEYWGQGTQVTVSS; 0.0489
V43 (VHH, Purified with C-terminal GGGGS-6×His) VHH: QLQLVESGGGSVQPGGSLRLSCEVSGRTFTSYTMGWFRQAPGKEREFVVAISKGGYKYDSVSLEARFTISKDNTKNTVYLQMNSLKPEDTAVYYCAGTRAYGSSRLRLANTYEYWGQGTQVTVSS; 0.0519
V8 (VHH) VHH: QLQLVESGGGSVQPGGSLRLSCEVSGRTFSSYTMGWFRQAPGKEREFVVAISKGGYKYNTVSLEARFTISKDNTKNTVYLQMNSLKPEDTAVYYCAGTRAYGSSRLKLAETYEYWGQGTQVTVSS; 0.0236

(Q) Please indicate OD450 recorded for V31 (VHH, Purified with C-terminal GGGGS-6×His) VHH: QLQLVESGGGSVQPGGSLRLSCEVSGRTFASYTMGWFRQAPGKEREFVVAISKGGYKYDAVSLEARFTISKDNTKNTVYLQMNSLKPEDTAVYYCAGTRAYGSSRLRLAKTYEYWGQGTQVTVSS
(A) 0.0363
